experimentalTarget: NAA25 N-alpha-acetyltransferase 25, NatB auxiliary subunit (Homo sapiens, UniProt Q14CX7)
Construct: isoTOP-ABPP experiments performed in cell lysates (in vitro); endogenous in cells; host or cells: soluble proteome of human cancer cell lines (MDA-MB-231; Ramos and Jurkat also prepared)
Sequence (Q14CX7 whole entry): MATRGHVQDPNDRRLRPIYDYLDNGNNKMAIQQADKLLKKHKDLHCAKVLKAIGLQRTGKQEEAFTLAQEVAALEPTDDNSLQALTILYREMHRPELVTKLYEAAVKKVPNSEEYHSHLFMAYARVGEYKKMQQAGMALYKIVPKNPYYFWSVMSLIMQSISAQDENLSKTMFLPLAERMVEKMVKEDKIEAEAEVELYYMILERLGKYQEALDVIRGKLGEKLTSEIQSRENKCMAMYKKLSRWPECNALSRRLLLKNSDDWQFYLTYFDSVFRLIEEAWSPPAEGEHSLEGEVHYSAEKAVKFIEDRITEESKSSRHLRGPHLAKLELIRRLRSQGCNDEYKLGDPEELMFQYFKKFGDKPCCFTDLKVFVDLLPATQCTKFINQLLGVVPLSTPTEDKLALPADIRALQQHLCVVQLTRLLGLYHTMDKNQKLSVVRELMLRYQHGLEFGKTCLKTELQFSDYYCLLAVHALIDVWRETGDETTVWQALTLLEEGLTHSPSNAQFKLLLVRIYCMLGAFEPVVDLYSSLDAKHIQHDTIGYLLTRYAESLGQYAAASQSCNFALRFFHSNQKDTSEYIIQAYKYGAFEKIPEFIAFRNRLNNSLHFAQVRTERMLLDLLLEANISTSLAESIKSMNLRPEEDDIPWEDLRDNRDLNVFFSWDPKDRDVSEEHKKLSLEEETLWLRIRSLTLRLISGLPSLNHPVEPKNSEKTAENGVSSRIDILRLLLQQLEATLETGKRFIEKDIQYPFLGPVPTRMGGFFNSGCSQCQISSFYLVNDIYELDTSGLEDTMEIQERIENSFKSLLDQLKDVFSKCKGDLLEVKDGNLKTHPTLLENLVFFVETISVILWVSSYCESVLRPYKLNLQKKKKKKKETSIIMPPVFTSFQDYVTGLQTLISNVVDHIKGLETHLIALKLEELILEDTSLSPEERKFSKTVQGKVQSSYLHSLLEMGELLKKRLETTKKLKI
assayComment: competitive isoTOP-ABPP
Type: binding
measurementConditions: Q14CX7_K575; 50 uM, 231 sol, in vitro
Protocol: In vitro covalent fragment treatment for isoTOP-ABPP. All compounds were made up as solutions in DMSO (100×) and were used at a final concentration of 50 μM for activated esters and 100 μM for guanidinylating agents. […] R value calculation and processing. The ratios of light and heavy MS1 peaks for each unique peptide were quantified with a CIMAGE software using default parameters (3 MS1 acquisitions per peak and signal to noise threshold set to 2.5). […]
recordedMetric: R value (DMSO/fragment) for probe 1 labeling

Would you please look over these solved cases?
O=C(Oc1c(F)c(F)c(F)c(F)c1F)C(c1ccccc1)c1ccccc1 [fragment 20, Pentafluorophenyl 2,2-diphenylacetate] ... 1.1
O=C(CCc1cn(-c2ccccc2)nc1-c1ccccc1)Oc1c(F)c(F)c(F)c(F)c1F ... 1.0

(1) Cn1cc(CC(=O)Oc2c(F)c(F)c(F)c(F)c2F)c2ccccc21
(2) O=C(Oc1c(F)c(F)c(F)c(F)c1F)c1cc(C(F)(F)F)cc(C(F)(F)F)c1
Decide: 1 or 2 , by lowest recorded R value (DMSO/fragment) for probe 1 labeling. Reply briefly: the label of your chosen item.
2
